- System: NCI-H226
- METHOD_DESCRIPTION: NCI tumour cell line growth inhibition, 48 h
The source made the active and inactive calls. No stated cut-off is given here; in the data, active = GI50 up to about 1.1 µM and inactive = higher. Starred links: 1 amine or outer side, 2 acyl side, 3 side chain; linkers in the order of their positions; H or OH if unused. Non-standard residues stand in square brackets, D forms with d. Residues, ends and D or L forms follow the SMILES beside them. X41 = CSCCCC(N[*:1])C(=O)[*:2]
VALUE_TYPE: GI50

>  <COMPOUND>
COC(=O)Oc1nn(C(=O)OC)c(=O)c2ccccc12

>  <EXPERIMENTAL_RESULT>
> 100 µM (inactive)

$$$$
>  <COMPOUND>
Nc1ccc(Oc2ccc(C34CC5CC6C3CC3CC4C(C5)C6(c4ccc(Oc5ccc(N)c(O)c5)cc4)C3)cc2)cc1O

>  <EXPERIMENTAL_RESULT>
3.52 µM (inactive)

$$$$
>  <COMPOUND>
N#CCCN(CCC#N)c1ccc(/C=C2\N=C(c3ccccc3)N(c3ccc(C(=O)O)cc3)C2=O)cc1

>  <EXPERIMENTAL_RESULT>
27.9 µM (inactive)

$$$$
>  <COMPOUND>
O=C(O)C(SC(=S)c1ccc(C(=S)SC(C(=O)O)c2ccccc2)cc1)c1ccccc1 (stereo unspecified)

>  <EXPERIMENTAL_RESULT>
55.5 µM (inactive)

$$$$
>  <COMPOUND>
OC1c2ccccc2CCC1C(O)(C(F)(F)F)C(F)(F)F (stereo unspecified)

>  <EXPERIMENTAL_RESULT>
38.4 µM (inactive)

$$$$
>  <COMPOUND>
N#Cc1c(N2CCCC2)ncn(-c2ccccc2)c1=S

>  <EXPERIMENTAL_RESULT>
> 100 µM (inactive)

$$$$
>  <COMPOUND>
CCOC(=O)CC[C@H](N)C(=O)N[C@@H](Cc1ccc(N(CCCl)CCCl)cc1)C(=O)OCC

>  <EXPERIMENTAL_RESULT>
11.1 µM (inactive)

$$$$
>  <COMPOUND>
COc1cc(NS(C)(=O)=O)ccc1NCc1c2ccccc2nc2ccccc12

>  <EXPERIMENTAL_RESULT>
> 100 µM (inactive)

$$$$
>  <COMPOUND>
CC(=O)N(N=O)c1ccc(N(N=O)C(C)=O)cc1

>  <EXPERIMENTAL_RESULT>
> 100 µM (inactive)

$$$$
>  <COMPOUND>
COc1cc(C(=O)CC2OC(=O)C(Cl)=C2Cl)ccc1Cl (stereo unspecified)

>  <EXPERIMENTAL_RESULT>
> 100 µM (inactive)

$$$$
>  <COMPOUND>
CC1CCN(C(C)C)P(=S)(Cc2ccccc2)O1 (stereo unspecified)

>  <EXPERIMENTAL_RESULT>
> 100 µM (inactive)

$$$$
>  <COMPOUND>
Cc1oc2nc1C(=O)NCc1nc(cs1)C(=O)N[C@H](C(C)C)c1nc(cs1)C(=O)N[C@H]2C

>  <EXPERIMENTAL_RESULT>
42.9 µM (inactive)

$$$$
>  <COMPOUND>
C#CCCCOc1ncccn1

>  <EXPERIMENTAL_RESULT>
> 100 µM (inactive)

$$$$
>  <COMPOUND>
O=C1CC(=O)NC(NN2C(=O)/C(=C/c3ccc(Cl)c(Cl)c3)N=C2c2ccccc2)=N1

>  <EXPERIMENTAL_RESULT>
32.1 µM (inactive)

$$$$
>  <COMPOUND>
COc1ccc2cc(C(=O)NCCCNC(=O)c3ccc4cc(OC)ccc4c3)ccc2c1

>  <EXPERIMENTAL_RESULT>
49.4 µM (inactive)

$$$$
>  <COMPOUND>
COC(=O)[C@H](C)N1C(=O)N[C@@H](C(C)C)C1=O

>  <EXPERIMENTAL_RESULT>
> 100 µM (inactive)

$$$$
>  <COMPOUND>
NC(Cc1ccccc1)C(=O)OCN1C(=O)C2C3C=CC(C2C1=O)C1C2C(=O)N(COC(=O)C(N)Cc4ccccc4)C(=O)C2C31 (stereo unspecified)

>  <EXPERIMENTAL_RESULT>
46.7 µM (inactive)

$$$$
>  <COMPOUND>
COc1ccc([C@]23CCN4COC[C@@H]([C@H]42)C2(CC3)OCC(C)(C)CO2)cc1OC

>  <EXPERIMENTAL_RESULT>
> 100 µM (inactive)

$$$$
>  <COMPOUND>
CC1=CC(=O)c2cccc(O)c2C1=O

>  <EXPERIMENTAL_RESULT>
7.28 µM (inactive)

$$$$
>  <COMPOUND>
O=S(=O)(/C=C/CS(=O)(=O)c1ccccc1)c1ccccc1

>  <EXPERIMENTAL_RESULT>
19.3 µM (inactive)

$$$$
>  <COMPOUND>
OCC(S)CS.[Bi] (stereo unspecified)

>  <EXPERIMENTAL_RESULT>
51.8 µM (inactive)

$$$$
>  <COMPOUND>
CC1SC2=NC3=C(c4ccccc4C3=O)C(c3ccccc3Cl)N2C1=O (stereo unspecified)

>  <EXPERIMENTAL_RESULT>
> 100 µM (inactive)

$$$$
>  <COMPOUND>
CSCCCC(NC(=O)CNC(=O)C1CCCN1C(=O)C(Cc1ccc(O)cc1)NC(=O)C(Cc1ccccc1)NC(=O)C(CCCNC(=N)N)NC(=O)C(CC(=O)O)NC(=O)C1CCCN1C(=O)C(CC(=O)O)NC(=O)C1CCCN1C(=O)C1CCCN1C(=O)CN)C(N)=O (stereo unspecified) (H-GPPDPDRFYPG[X41]-NH2; configuration not given here)

>  <EXPERIMENTAL_RESULT>
> 50 µM (inactive)

$$$$
>  <COMPOUND>
Clc1ccc(/C=C/c2nc(-c3ccccc3)cn3c2nc2ccccc23)cc1Cl

>  <EXPERIMENTAL_RESULT>
> 100 µM (inactive)

$$$$
>  <COMPOUND>
NC(CP(=O)(O)O)C(=O)O (stereo unspecified)

>  <EXPERIMENTAL_RESULT>
> 100 µM (inactive)

$$$$
>  <COMPOUND>
NC(=O)CN(CC(N)=O)C(N)=O

>  <EXPERIMENTAL_RESULT>
> 100 µM (inactive)

$$$$
>  <COMPOUND>
CC(=O)Nc1ccc(/C=C2\N=C(c3ccccc3)OC2=O)cc1

>  <EXPERIMENTAL_RESULT>
> 100 µM (inactive)

$$$$
>  <COMPOUND>
CCn1c(SCC(=O)NNC(=S)Nc2ccc([N+](=O)[O-])cc2)nc2ccccc2c1=O

>  <EXPERIMENTAL_RESULT>
90.4 µM (inactive)

$$$$
>  <COMPOUND>
CN1C(=O)N(C)C2(CCN(CC(CC3OCCO3)c3ccc(F)cc3)CC2)C1=O (stereo unspecified)

>  <EXPERIMENTAL_RESULT>
> 100 µM (inactive)

$$$$
>  <COMPOUND>
CC(N)Cc1ccc(Cl)c(Cl)c1 (stereo unspecified)

>  <EXPERIMENTAL_RESULT>
33.6 µM (inactive)

$$$$
>  <COMPOUND>
O=C(NCCCN1CCN(CCCNC(=O)c2cnc3ccccc3n2)CC1)c1cnc2ccccc2n1

>  <EXPERIMENTAL_RESULT>
86.5 µM (inactive)

$$$$
>  <COMPOUND>
c1ccc(COc2cccc3ccc[n+](Cc4ccccc4)c23)cc1

>  <EXPERIMENTAL_RESULT>
3.31 µM (inactive)

$$$$
>  <COMPOUND>
COc1cc(Nc2ccc3c(c2)CCC3)nc(OC)n1

>  <EXPERIMENTAL_RESULT>
32.5 µM (inactive)

$$$$
>  <COMPOUND>
CN1C[C@@H]2CCCN2P1Oc1cccc2cccnc12 (stereo partly specified)

>  <EXPERIMENTAL_RESULT>
80.9 µM (inactive)

$$$$
>  <COMPOUND>
O=c1c2cc([N+](=O)[O-])ccc2n(Cc2ccccc2)n1Cc1ccccc1

>  <EXPERIMENTAL_RESULT>
12.7 µM (inactive)

$$$$
>  <COMPOUND>
O=[N+]([O-])c1ccc(Cl)cc1C1ON=C(c2ccccc2)N1C12CC3CC(CC(C3)C1)C2 (stereo unspecified)

>  <EXPERIMENTAL_RESULT>
64.3 µM (inactive)

$$$$
>  <COMPOUND>
COC(=O)/C=C1\C(=O)Nc2ccc(Br)cc21

>  <EXPERIMENTAL_RESULT>
1.72 µM (inactive)

$$$$
>  <COMPOUND>
CC[C@@H](CCCC[C@@H]1CC[C@H]2CC(=O)C[C@@H]12)OC

>  <EXPERIMENTAL_RESULT>
> 100 µM (inactive)

$$$$
>  <COMPOUND>
Cc1sc2nc(-c3ccc(Cl)c([N+](=O)[O-])c3)c(/C=N/NC(=N)N)n2c1C

>  <EXPERIMENTAL_RESULT>
1.61 µM (inactive)

$$$$
>  <COMPOUND>
Cc1ccc(C(=O)/C=C/c2ccccc2Cl)cc1

>  <EXPERIMENTAL_RESULT>
25.1 µM (inactive)

$$$$
>  <COMPOUND>
Cc1nc(C(N)=S)sc1C(=O)/C=C/c1c(O)ccc2ccccc12

>  <EXPERIMENTAL_RESULT>
> 100 µM (inactive)

$$$$
